// data source = patent US20250313632A1

target: human B7-H3 (4Ig) protein (his tag) (human) (UniProt Q5ZPR3); assay: SPR (Biacore T200), antibody captured on Protein A chip, B7-H3 injected, 1:1 model
Please provide measured pKd for the entries that follow.
Answers are plain numbers, as −log10 of the molar value.

BINDER: 216E7A9 (antibody, V domains shown) VH: DVQLVESGGGLVQPGGSRKLSCAASGFTFSSFGMHWVRQAPEKGLEWVAYISSGSSTIYYADTVRGRFTISRDNPKNTLFLQMTSLRSEDTAMYYCARGGDYYYALDYWGQGTSVTVSS VL: DIQMTQSPASLSVSVGETVTITCRASENIHSNLEWYQQKQGKSPQLLVYAATNLADGVPSRFSGSGSGTQYSLKINSLQSEDFGSYYCQHFWGTPFTFGSGTKLEIK
pKd: 8.60
--
BINDER: 97E6B2 (antibody, V domains shown) VH: QVQLQQPGAELVKPGASVKMSCKASGYTFTSYWITWVKQRPGQGLEWIGDIYPGSNNTYYNEKFKSKATLTVDTSSSTAYIQLSSLTSEDSAVYYCARLIMSLFDYSGQGTTLTVSS VL: ENVLTQSPANMSASPGEKVTMTCSVSSSVSYIHWYQQKSSTSPTLWIYDTSKLASGVPGRFSGSGSGNSYALTISSMEAEDVATYYCFQGSAYPLTFGAGTKLELK
pKd: 9.13

I need pKd for every entry listed below, if you could help.
1. 227E12D1 (antibody, V domains shown) VH: EVKLVESGGGLVKPGGSLKLSCAASGFTFSSYGMSWVRQTPEKRLEWVATISGGGTYTYYPDSVKGRFTISRDNAKNNLYLQMSSLRSDDTALYYCARHEGLVMDYWGQGTSVTVSS VL: DIQMTQSPASLSASVGETVTITCRASENIYSYLAWYQQKQGKSPQLVVYNAKTLAEGVPSRFSGSGSGTQFSLKINSLQPEDFGTYYCQHHYGPPPYTFGGGTKLEIK
2. 106A5B3 (antibody, V domains shown) VH: EVQLVESGGDLVKPGGSLKLSCAASGFTFSSYGMSWVRQTPDKRLEWVATISSGGSYIYYPDSMKGRFTISRDNAKNTLYLQMSSLQSEDTAIYYCASDYGSRYFDYWGQGTTLTVSS VL: QIVLTQSPAIMSASPGEKVTMTCSASSSVIYMSWYKQKPGSSPRLLIYDTSNLASGVPVRFSGSGSGTSYSLTISRMEAEDAATYYCQQWSSYPRTFGGGTKLEIK
3. AHP05564 (antibody, V domains shown) VH: EVQLVETGGGVVQPGRSLRLSCAASGFTFSSSGMHWVRQAPGKGLEWVAVISYDVTNKYYVDSVKGRFTISRDNSENTLYLQMNSLRAEDTGVYYCVRDGGPRWLGWYFDLWGRGTLVTVSS VL: NIQMTQSPSSQSASVGDRVTITCRANQAIANSLAWYQQKPGKAPKLLLFGTSLLHSGVPSRFSGSGSGTEYTLTISSLQPDDFGTYYCQQYFSFPRTFGQGTQVDVY
4. 62H9H5 (antibody, V domains shown) VH: QVQLQQSGAELAKPGASVKMSCKASGYTFTNYWIHWVKQRPGQGLEWIGYISPSTGYTEYNQKFKGKATLTAVKSSSTAFMQLSSLTSEDSAVYFCARGTGYWGQGTTLTVSS VL: DIQMTQSPASLSASVGESVTITCRASENIYSFFAWYQQKEGKSPQLLVYNAKTLEEGVPSRFSGSGSGTQFSLKINSLQPEDFGSYYCQHNYVSPFTFGSGTKLEIK
5. AHP06358 (antibody, V domains shown) VH: EVQLVQSGAEVKKPGASVKVSCKASGYTFTSYGISWVRQAPGQGLEWMGWISAYNGNTNYAQKLQGRVTMTTDTSTSTAYMELRSLRSDDTAVYYCARDSPLQIAVAGYYYGMDVWGQGTTVTVSS VL: NFMLTQPHSVSESPGKTVTISCTRSSGSIVSGYVQWYQQRPGSAPSTVIYEHNQRPSGVPDRFSGSIDSSSNSASLTISGLRTEDEADYYCQSYDSRNMIFGGGTKLTVL
6. MGA017 (antibody, from a related filing, V domains shown) VH: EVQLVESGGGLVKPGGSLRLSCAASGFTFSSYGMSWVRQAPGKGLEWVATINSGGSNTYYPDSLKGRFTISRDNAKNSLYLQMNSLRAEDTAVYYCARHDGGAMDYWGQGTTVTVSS VL: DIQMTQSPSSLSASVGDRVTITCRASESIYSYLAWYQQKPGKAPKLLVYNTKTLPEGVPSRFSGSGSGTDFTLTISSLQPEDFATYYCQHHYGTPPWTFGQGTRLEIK

// result
9.21
9.32
9.28
9.33
9.13
8.75
